Entry source: ChEMBL document CHEMBL1124258

The following compounds are shown together with reported log10(IC50) values.
Target: GABA-A receptor; anion channel
Assay: Inhibition of 0.6 nM [3H]flunitrazepam binding to GABA-A central benzodiazepine receptor of rat forebrain membrane
Kindly note that the scale is log10 and the underlying IC50 is in µM.

// worked examples, log10(IC50) included
compound: CSc1nc2nc(C(=O)c3ccccc3)cn2c2c1CCC2
metric: log10(IC50)
recorded_measurement: -1.46
//
compound: CCOC(=O)N1Cc2c(OC)nc3nc(C(=O)c4ccccc4)cn3c2C1
metric: log10(IC50)
recorded_measurement: 1.00
//
compound: CSc1cc(C)n2cc(C(=O)c3ccccc3)nc2n1
metric: log10(IC50)
recorded_measurement: -0.72

Given the entry COc1cc2nc(C(=O)c3ccccc3)cn2c2ccccc12 , what log10(IC50) was observed with GABA-A receptor; anion channel?
-1.24

Given the entry O=C(OCc1ccccc1)c1cn2c(n1)sc1ccccc12 , what log10(IC50) was observed with GABA-A receptor; anion channel?
-1.30

Given the entry CCCc1cc(OC)nc2nc(C(=O)c3ccccc3)cn12 , what log10(IC50) was observed with GABA-A receptor; anion channel?
-0.27

Given the entry CCOc1nc2nc(C(=O)c3ccccc3)cn2c2c1CCCC2 , what log10(IC50) was observed with GABA-A receptor; anion channel?
0.30

Given the entry COc1nc2nc(C(=O)c3ccccc3)cn2c2c1CCC(C)C2 (centres undefined) , what log10(IC50) was observed with GABA-A receptor; anion channel?
-0.87

Given the entry CCCOC(=O)c1cn2c(n1)sc1ccccc12 , what log10(IC50) was observed with GABA-A receptor; anion channel?
-0.33

Given the entry COc1cc2nc(C(=O)c3ccc(C)cc3)cn2c2ccccc12 , what log10(IC50) was observed with GABA-A receptor; anion channel?
-1.72

====

Molecular target: GABA-A receptor; anion channel
Experiment: Inhibition of 0.6 nM [3H]flunitrazepam binding to GABA-A central benzodiazepine receptor of rat forebrain membrane
pIC50: −log10 of the molar value.
Rule: satisfied for pIC50 not less than 7, not satisfied for anything less.

Check out these entries, answers already filled in.
smiles_string: COc1cc(C)n2cc(C(=O)c3ccccc3)nc2n1
class_name: not satisfied
//
smiles_string: CCCCc1c(OC)nc2nc(C(=O)c3ccccc3)cn2c1CC
class_name: satisfied
//
smiles_string: O=C(Nc1cccc(Cl)c1)c1cn2c(n1)sc1ccccc12
class_name: not satisfied
//
smiles_string: CSc1nc2nc(C(=O)c3ccccc3)cn2c2c1CCCC2
class_name: satisfied
//
smiles_string: COc1cc2nc(C(=O)c3ccccc3)cn2c2ccc(C(C)C)cc12
class_name: satisfied
//
smiles_string: COc1nc2nc(C(=O)c3ccccc3)cn2c2c1CSC2
class_name: not satisfied
//
smiles_string: CCSc1nc2nc(C(=O)c3ccccc3)cn2c2c1CCC2
class_name: not satisfied

Here is another compound to look at.
# check: pIC50 of COc1nc2nc(C(=O)c3ccccc3)cn2c2c1CSCC2 is greater than or equal to 7
not satisfied

====

Species: Rattus norvegicus
Assay: Minimum Effective Dose (MED) was measured using Food-Conflict test in rats
Format: functional
Details: read-out: MED
The following molecules are shown together with reported minimal effective dose values.
Give the value, in units of mg/kg, as a plain number.

// worked examples, minimal effective dose included
molecule: CCCc1c(OC)nc2nc(C(=O)c3ccccc3)cn2c1CC
units_of_measure: mg/kg
minimal effective dose: 10
--
molecule: CCc1cn2cc(C(=O)c3ccccc3)nc2nc1OC
units_of_measure: mg/kg
minimal effective dose: 5
--
molecule: COc1cc2nc(C(=O)c3ccccc3)cn2c2ccc(F)cc12
units_of_measure: mg/kg
minimal effective dose: 10
--
molecule: CCc1c(OC)nc2nc(C(=O)c3ccccc3)cn2c1CC
units_of_measure: mg/kg
minimal effective dose: 2
--
molecule: COc1nc2nc(C(=O)c3ccccc3)cn2c(C)c1OC
units_of_measure: mg/kg
minimal effective dose: 5
--
molecule: CCOc1nc2nc(C(=O)c3ccccc3)cn2c2c1CCCCC2
units_of_measure: mg/kg
minimal effective dose: 5
--
molecule: COc1nc2nc(C(=O)c3ccccc3)cn2c2c1CSCC2
units_of_measure: mg/kg
minimal effective dose: 20
--
molecule: CCCCc1c(OC)nc2nc(C(=O)c3ccccc3)cn2c1C
units_of_measure: mg/kg
minimal effective dose: 2
--
molecule: COc1cc2nc(C(=O)c3ccccc3)cn2c2ccc(C(C)C)cc12
units_of_measure: mg/kg
minimal effective dose: 5
--
molecule: C=CCc1c(OC)nc2nc(C(=O)c3ccccc3)cn2c1CC
units_of_measure: mg/kg
minimal effective dose: 10

What value of minimal effective dose has been reported for the following molecule? CSc1nc2nc(C(=O)c3ccccc3)cn2c2c1CCC(C)C2 (stereo not drawn)
50

What value of minimal effective dose has been reported for the following molecule? CCCc1cc(OC)nc2nc(C(=O)c3ccccc3)cn12
1
